From: patent US4382943A

System: antigen induced bronchospasm in passively sensitized guinea pigs
Assay: Inhibition of antigen induced bronchospasm (Br Sp) in passively sensitized guinea pigs
Format: in vivo, guinea pig
Conditions: Cavia porcellus, po, 0.05 h; 0.75 mg/kg p.o., 60 min before antigen; 3 min after antigen
Measure Name: inhibition in vivo at 0.75 mg/kg
Kindly write the number and append the unit.

Input: Please give the documented inhibition in vivo at 0.75 mg/kg of Cc1ccccc1C(=O)NC1CCN(CCCOc2ccc3c4c(c(=O)oc3c2)CCC4)CC1
Output: 76%

Input: Assign inhibition in vivo at 0.75 mg/kg to the following record: Cc1ccccc1C(=O)NC1CCN(CCCOc2ccc3c4c(c(=O)oc3c2)CCCC4)CC1
Output: 78%

Input: Quote inhibition in vivo at 0.75 mg/kg reported for O=C(Cc1ccccc1)NC1CCN(CCCOc2ccc3c4c(c(=O)oc3c2)CCC4)CC1 please.
Output: 70%

Input: Query inhibition in vivo at 0.75 mg/kg for COc1ccc(C(=O)NC2CCN(CCCOc3ccc4c5c(c(=O)oc4c3)CCCC5)CC2)cc1
Output: 87%
